Entries annotated with measured pIC50
System: OVCAR-3
Experiment: OVCAR3 CTG assay
Type: cell-based
Settings: Homo sapiens, OVCAR-3, 144 h; CellTiter-Glo, 6 days incubation
pIC50: −log10 of the molar value.

[ask] What pIC50 value was documented for this molecule, `C[C@H]1COCC2(C(F)(F)F)CCN(CC2)c2cc(NS(=O)(=O)CCO)ccc2C(=O)Nc2cccc(n2)CO1` ?
[reply] 7.00 to 8.00

[ask] What pIC50 value was documented for this molecule, `CC12CCN(CC1)c1cc(NS(=O)(=O)CCO)ccc1C(=O)Nc1cccc(n1)OCCOC2` ?
[reply] 6.00 to 7.00

[ask] What pIC50 value was documented for this molecule, `C[C@H]1CCOCC2(C(F)(F)F)CCN(CC2)c2cc(NS(=O)(=O)CCO)ccc2C(=O)Nc2cccc(n2)N1` ?
[reply] 7.00 to 8.00

[ask] What pIC50 value was documented for this molecule, `CO[C@H]1CNc2cccc(n2)NC(=O)c2ccc(NS(=O)(=O)CCO)cc2N2CCC(C(F)(F)F)(CC2)COC1` ?
[reply] > 8.00
